// data source = BigSolDB 2.1

# Condition label: in water, 293.15 K
Property label: solubility (mole fraction)
Reply with just the number.

Task: // solubility (mole fraction) lookup, key: OCC1(O)OC[C@@H](O)[C@H](O)[C@@H]1O (stereo partly specified)
Output: 0.116

###

# Condition label: in n-propanol, 288.15 K
Property label: solubility (mole fraction)
Output: the number by itself.

Task: Please give the measured solubility (mole fraction) for this compound: OCC1(O)OC[C@@H](O)[C@H](O)[C@@H]1O (stereo partly specified)
Output: 0.00043

###

# Condition label: in water, 318.15 K
Property label: solubility (mole fraction)
Number, no unit, nothing else.

Task: I am curious: what solubility (mole fraction) value has been reported for OCC1(O)OC[C@@H](O)[C@H](O)[C@@H]1O (stereo partly specified) ?
Output: 0.166

###

# Condition label: in isopropanol, 293.15 K
Property label: solubility (mole fraction)
Note: the reply should be a number with no unit written.

Task: Entry OCC1(O)OC[C@@H](O)[C@H](O)[C@@H]1O (stereo partly specified) : reported solubility (mole fraction) = ?
Output: 0.0006

###

# Condition label: in n-propanol, 298.15 K
Property label: solubility (mole fraction)
Lab note: record the figure alone, no unit after it.

Task: Item under review: OCC1(O)OC[C@@H](O)[C@H](O)[C@@H]1O (stereo partly specified) . Reported solubility (mole fraction)?
Output: 0.00088

###

# Condition label: in water, 303.15 K
Property label: solubility (mole fraction)
Answer with the value's number alone.

Task: Field request: solubility (mole fraction) | item: OCC1(O)OC[C@@H](O)[C@H](O)[C@@H]1O (stereo partly specified)
Output: 0.135

###

# Condition label: in methanol, 313.15 K
Property label: solubility (mole fraction)

Task: Return reported solubility (mole fraction); argument: OCC1(O)OC[C@@H](O)[C@H](O)[C@@H]1O (stereo partly specified)
Output: 0.0121

###

# Condition label: in isopropanol, 303.15 K
Property label: solubility (mole fraction)
# output: bare number, no unit

Task: // returns reported solubility (mole fraction) for input OCC1(O)OC[C@@H](O)[C@H](O)[C@@H]1O (stereo partly specified)
Output: 0.00121

###

# Condition label: in isopropanol, 298.15 K
Property label: solubility (mole fraction)

Task: Given the entry OCC1(O)OC[C@@H](O)[C@H](O)[C@@H]1O (stereo partly specified) , report its measured solubility (mole fraction).
Output: 0.00088

###

# Condition label: in isopropanol, 288.15 K
Property label: solubility (mole fraction)
Please reply with the value in numeric form only.

Task: Item OCC1(O)OC[C@@H](O)[C@H](O)[C@@H]1O (stereo partly specified) has what recorded solubility (mole fraction)?
Output: 0.00041

###

# Condition label: in methanol, 308.15 K
Property label: solubility (mole fraction)
Write the number on its own, no unit after it.

Task: Sample OCC1(O)OC[C@@H](O)[C@H](O)[C@@H]1O (stereo partly specified) — what was its solubility (mole fraction)?
Output: 0.0101

###

# Condition label: in water, 288.15 K
Property label: solubility (mole fraction)
In your answer, state the number alone without any accompanying words.

Task: Which solubility (mole fraction) is reported for this compound? OCC1(O)OC[C@@H](O)[C@H](O)[C@@H]1O (stereo partly specified)
Output: 0.106

###

# Condition label: in methanol, 288.15 K
Property label: solubility (mole fraction)
I only need the number, thanks.

Task: Would you mind telling me what solubility (mole fraction) value was observed for OCC1(O)OC[C@@H](O)[C@H](O)[C@@H]1O (stereo partly specified) ?
Output: 0.00553
